Biological target: TRPML3 (Homo sapiens)
Construct: expressed in transfected cells
Sequence (Q8TDD5 whole entry): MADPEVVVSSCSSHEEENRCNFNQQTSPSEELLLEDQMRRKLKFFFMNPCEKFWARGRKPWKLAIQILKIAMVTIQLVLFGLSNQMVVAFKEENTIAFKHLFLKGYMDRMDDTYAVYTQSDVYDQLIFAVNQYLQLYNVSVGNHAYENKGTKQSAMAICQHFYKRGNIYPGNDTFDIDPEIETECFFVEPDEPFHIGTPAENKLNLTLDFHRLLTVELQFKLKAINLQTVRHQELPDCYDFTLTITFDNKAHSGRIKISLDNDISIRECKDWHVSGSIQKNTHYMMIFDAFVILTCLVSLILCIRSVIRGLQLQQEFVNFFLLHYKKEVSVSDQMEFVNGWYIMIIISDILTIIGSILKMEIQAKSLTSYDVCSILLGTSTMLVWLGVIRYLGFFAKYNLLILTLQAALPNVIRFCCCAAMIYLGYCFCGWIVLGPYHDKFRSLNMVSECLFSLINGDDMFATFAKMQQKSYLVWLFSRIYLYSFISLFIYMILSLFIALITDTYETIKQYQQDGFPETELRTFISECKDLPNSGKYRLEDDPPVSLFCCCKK
Assay: Fluorescent TRPML3 assay (as for TRPML1)
Type: cell-based
Conditions: Table 3, compounds 201-283
pEC50: −log10 of the molar value.
Examples of molecules with documented pEC50 follow.

> print(dat)
                                   molecule        result
1  C[C@@H]1CN(c2ncnc3c2c(C2CC2)cn3-c2cccc(Cl)c2)[C@@H](C)CN1C(=O)C(C)(C)C [Compound 206]        > 7.00
2  CC(C)C(=O)N1CCN(c2ncnc3c(-c4cc(C#N)ccn4)cn(-c4ccccc4F)c23)[C@@H](C)C1 [Compound 212]  6.30 to 7.00
3  CC(C)C(=O)N1C[C@@H](C)N(c2ncnc3c2c(-c2ccccc2F)cn3-c2cc(C#N)ccn2)C[C@@H]1C [Compound 201]  6.30 to 7.00

Ask: Please look at this molecule and report its pEC50: COC(C)(C)C(=O)N1CCN(c2ncnc3c2c(N2CCC2)cn3-c2cc(C#N)ccn2)C[C@H]1C [Compound 269]
Reply: > 7.00

Every entry's value here was drawn from patent US20240398812A1.
